biological target: Human recombinant FAP (Homo sapiens); assay: Surface plasmon resonance assay (Biacore T200, single cycle kinetics); type: binding; conditions: SPR, half-life, 25°C
observation.type: HL [min] (Biacore) (min)
Numbers only here, please. The scale is min.

The following compounds have reported results that may help.
O=C(NCC(=O)N1CCC[C@H]1C(=O)CO)c1ccnc2ccccc12 :: 3.1
N#C[C@@H]1CC(F)(F)CN1C(=O)CNC(=O)c1cc[n+]([O-])c2ccc(OCCCN3CCN(C(=O)CN4CCN(CC(=O)O)CCN(CC(=O)O)CCN(CC(=O)O)CC4)CC3)cc12 :: 19

Please supply the value of reported HL [min] (Biacore) for the item O=C(O)CN1CCN(CC(=O)O)CCN(CC(=O)N2CCN(CCNC(=O)c3ccc(-c4ccc5nccc(C(=O)NCC(=O)N6CCC[C@H]6C(=O)c6nc7ccccc7o6)c5c4)cn3)CC2)CCN(CC(=O)O)CC1 [drawing 361] 4.1

====

Entries and their pIC50 (FACS)
target: FAP-expressing human WI-38 fibroblasts (Homo sapiens); construct: FAP-expressing human WI-38 fibroblasts (ECACC 90020107) were cultured in EMEM; host or cells: WI-38 human fibroblasts; assay: Competitive FACS binding assay (displacement of Cy5-labeled FAP inhibitor 3BP-2935); settings: 3 nM Cy5-labeled 3BP-2935, 4°C, 1 hour
Simply state the number, no unit and no words.

O=C(O)CN1CCN(CC(=O)O)CCN(CC(=O)NCCCNC(=O)c2ccc(-c3ccc4nccc(C(=O)NCC(=O)N5CCC[C@H]5C(=O)c5nc6ccccc6o5)c4c3)cc2)CCN(CC(=O)O)CC1 :: 8.6
N#C[C@@H]1CCCN1C(=O)CNC(=O)c1ccnc2ccc(-c3ccc(C(=O)NCCCNC(=O)CN4CCN(CC(=O)O)CCN(CC(=O)O)CCN(CC(=O)O)CC4)cc3)cc12 :: 8.7
O=C(O)CN1CCN(CC(=O)O)CCN(CC(=O)N2CCN(CCCOc3ccc4nccc(C(=O)NCC(=O)N5C[C@@H](F)C[C@H]5C(=O)c5nc6ccccc6o5)c4c3)CC2)CCN(CC(=O)O)CC1 [drawing 358] :: 8.6
O=C(O)CN1CCN(CC(=O)O)CCN(CC(=O)N2CCN(CCNC(=O)c3ccc(-c4ccc5nccc(C(=O)NCC(=O)N6C[C@@H](F)C[C@H]6C(=O)c6nc7ccccc7o6)c5c4)cc3)CC2)CCN(CC(=O)O)CC1 [drawing 360] :: 7.6

As a next step, examine the molecule that follows.
Please supply the value of reported pIC50 (FACS) for the item `O=C(O)CN1CCN(CC(=O)O)CCN(CC(=O)NCCCNC(=O)c2ccc(-c3ccc4nccc(C(=O)NCC(=O)N5CCC[C@H]5B(O)O)c4c3)cc2)CCN(CC(=O)O)CC1` 8.9

====

biological target: Human recombinant FAP (Homo sapiens, UniProt Q12884); assay: Surface plasmon resonance assay (Biacore T200, single cycle kinetics); type: binding; settings: SPR, 25°C, 1:1 Langmuir binding model; read-out: pKD (Biacore) (converted)
observation.type: Kd (nM)
Numbers only here, please. The scale is nM.

The following compounds have reported results that may help.
CS(=O)(=O)c1cccc(-c2ccc3nccc(C(=O)NCC(=O)N4CC(F)(F)C[C@H]4C#N)c3c2)c1 [drawing 288] :: 0.0794
N#C[C@@H]1CCCN1C(=O)CNC(=O)c1ccnc2ccc(-c3ccc(C(=O)O)cc3)cc12 :: 0.2
CC(C)(C)c1nnc(C(=O)[C@@H]2CCCN2C(=O)CNC(=O)c2ccnc3ccccc23)o1 :: 2.51

Please supply the value of reported Kd for the item `CS(=O)(=O)c1ccc(-c2ccc3nccc(C(=O)NCC(=O)N4CCC[C@H]4C#N)c3c2)cc1` 0.158

Please supply the value of reported Kd for the item `O=C(NCC(=O)N1CCC[C@H]1C(=O)c1nc2ccccc2s1)c1ccnc2ccccc12` 3.98

====

target: Human recombinant FAP (Homo sapiens, UniProt Q12884); test: Surface plasmon resonance assay (Biacore T200, single cycle kinetics); format: binding; details: SPR, 25°C, 1:1 Langmuir binding model
observation.type: pKD (Biacore)
Simply state the number, no unit and no words.

O=C(O)CN1CCN(CC(=O)O)CCN(CC(=O)N2CCN(CCCOc3ccc4nccc(C(=O)NCC(=O)N5CC(F)(F)C[C@H]5C(=O)c5nc6ccccc6o5)c4c3)CC2)CCN(CC(=O)O)CC1 :: 8.6

As a next step, examine the compound that follows.
Please supply the value of reported pKD (Biacore) for the item O=C(O)CN1CCN(CC(=O)O)CCN(CC(=O)N2CCN(CCNC(=O)c3ccc(-c4ccc5nccc(C(=O)NCC(=O)N6CCC[C@H]6C(=O)c6nc7ccccc7o6)c5c4)cn3)CC2)CCN(CC(=O)O)CC1 [drawing 361] 8.7

====

Entries and their IC50
Target: recombinant human PREP (Homo sapiens)
Sequence (P48147 whole entry): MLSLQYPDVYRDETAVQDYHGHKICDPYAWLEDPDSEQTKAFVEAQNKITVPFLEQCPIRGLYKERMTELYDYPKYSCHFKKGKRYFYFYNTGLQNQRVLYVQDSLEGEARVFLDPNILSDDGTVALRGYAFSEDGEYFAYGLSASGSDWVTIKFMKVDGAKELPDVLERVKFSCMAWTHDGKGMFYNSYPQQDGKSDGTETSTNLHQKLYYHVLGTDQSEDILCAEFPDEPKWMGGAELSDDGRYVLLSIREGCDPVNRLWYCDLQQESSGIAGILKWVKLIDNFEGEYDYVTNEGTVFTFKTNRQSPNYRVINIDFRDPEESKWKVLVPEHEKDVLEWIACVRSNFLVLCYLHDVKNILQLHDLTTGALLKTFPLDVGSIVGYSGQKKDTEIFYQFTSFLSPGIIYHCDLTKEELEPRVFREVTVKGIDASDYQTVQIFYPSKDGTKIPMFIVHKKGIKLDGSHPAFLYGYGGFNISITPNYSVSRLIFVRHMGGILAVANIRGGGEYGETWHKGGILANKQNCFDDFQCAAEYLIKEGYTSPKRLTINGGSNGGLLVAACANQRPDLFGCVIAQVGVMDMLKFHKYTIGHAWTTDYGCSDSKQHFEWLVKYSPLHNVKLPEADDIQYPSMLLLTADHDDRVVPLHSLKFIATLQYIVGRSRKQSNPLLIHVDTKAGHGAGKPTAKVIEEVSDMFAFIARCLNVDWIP
Test: PREP protease activity assay
Conditions: 50 µM Z-GP-AMC substrate
Method: The PREP activity assay was performed using the FACS buffer (PBS including 1% FBS, Sigma-Aldrich, Cat# D8537). […] The DPP4 activity assay was performed in DPP assay buffer (25 mM Tris, pH 8.0). Four parameter logistic (4PL) curve fitting and pIC50 calculations were performed using ActivityBase software.
Numbers only here, please. The scale is nM.

The following compounds have reported results that may help.
O=C(NCC(=O)N1CCC[C@H]1C(=O)c1nc2ccccc2o1)c1ccnc2ccccc12 :: 1
O=C(NCC(=O)N1CCC[C@H]1C(=O)c1nccs1)c1ccnc2ccccc12 :: 25.1
O=C(NCC(=O)N1CCC[C@H]1C(=O)c1ncco1)c1ccnc2ccccc12 [drawing 297] :: 0.631

Please supply the value of reported IC50 for the item `O=C(NCC(=O)N1CCC[C@H]1C(=O)c1nc2ccccc2s1)c1ccnc2ccccc12` 15.8

Please supply the value of reported IC50 for the item `CC(C)(C)c1nnc(C(=O)[C@@H]2CCCN2C(=O)CNC(=O)c2ccnc3ccccc23)o1` 1.26

Please supply the value of reported IC50 for the item `Cc1nc(C(=O)[C@@H]2CCCN2C(=O)CNC(=O)c2ccnc3ccccc23)no1` 1.26

Please supply the value of reported IC50 for the item CS(=O)(=O)c1ccc(-c2ccc3c(C(=O)NCC(=O)N4CCC[C@H]4C#N)ccnc3c2)cc1 [drawing 290] 794

====

biological target: HEK-FAP cells (Homo sapiens); construct: expressed in transfected cells; host or cells: HEK293; assay: LigandTracer assay with 111In-labeled compounds; assay type: binding; settings: 111In-labeled compound
observation.type: pKD

Please supply the value of reported pKD for the item `O=C(O)CN1CCN(CC(=O)O)CCN(CC(=O)N2CCN(CCCOc3ccc4nccc(C(=O)NCC(=O)N5C[C@@H](F)C[C@H]5C(=O)c5nc6ccccc6o5)c4c3)CC2)CCN(CC(=O)O)CC1` 8.2 ± 0.1

Please supply the value of reported pKD for the item `O=C(O)CN1CCN(CC(=O)O)CCN(CC(=O)N2CCN(CCNC(=O)c3ccc(-c4ccc5c(C(=O)NCC(=O)N6CCC[C@H]6C(=O)c6nc7ccccc7o6)ccnc5c4)cc3)CC2)CCN(CC(=O)O)CC1` 8.8 ± 0.2

Please supply the value of reported pKD for the item `O=C(O)CN1CCN(CC(=O)O)CCN(CC(=O)N2CCN(CCNC(=O)c3cccc(-c4ccc5nccc(C(=O)NCC(=O)N6CCC[C@H]6C(=O)c6nc7ccccc7o6)c5c4)c3)CC2)CCN(CC(=O)O)CC1` 9.3 ± 0.7

====

Protein target, amino acids: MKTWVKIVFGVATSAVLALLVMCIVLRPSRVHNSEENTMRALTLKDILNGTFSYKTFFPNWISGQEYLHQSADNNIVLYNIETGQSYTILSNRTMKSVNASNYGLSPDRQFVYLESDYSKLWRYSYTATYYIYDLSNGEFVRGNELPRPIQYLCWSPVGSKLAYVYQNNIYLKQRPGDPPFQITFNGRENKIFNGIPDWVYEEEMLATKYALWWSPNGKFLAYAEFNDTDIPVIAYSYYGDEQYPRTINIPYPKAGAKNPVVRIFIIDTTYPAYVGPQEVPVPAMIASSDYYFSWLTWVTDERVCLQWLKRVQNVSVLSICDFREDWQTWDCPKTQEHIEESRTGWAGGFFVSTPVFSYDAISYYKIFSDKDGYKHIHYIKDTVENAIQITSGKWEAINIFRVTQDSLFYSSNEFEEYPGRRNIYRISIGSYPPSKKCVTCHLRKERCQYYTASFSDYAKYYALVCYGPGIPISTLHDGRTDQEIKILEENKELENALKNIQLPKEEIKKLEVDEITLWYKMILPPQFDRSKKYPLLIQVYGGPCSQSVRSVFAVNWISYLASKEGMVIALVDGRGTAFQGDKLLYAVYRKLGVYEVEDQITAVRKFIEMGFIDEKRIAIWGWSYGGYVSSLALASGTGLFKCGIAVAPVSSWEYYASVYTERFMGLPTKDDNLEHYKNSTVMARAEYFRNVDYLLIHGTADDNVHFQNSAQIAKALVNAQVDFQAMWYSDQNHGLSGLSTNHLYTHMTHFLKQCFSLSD
Entries and their pIC50
Field pIC50 (float): negative decimal logarithm of the concentration in molar.

The following compounds have reported results that may help.
CS(=O)(=O)c1cccc(-c2ccc3nccc(C(=O)NCC(=O)N4CC(F)(F)C[C@H]4C#N)c3c2)c1 [drawing 288] :: 8.80
O=C(NCC(=O)N1CCC[C@H]1B(O)O)c1ccnc2ccccc12 :: 8.50
O=C(NCC(=O)N1CCC[C@H]1C(=O)c1ncn[nH]1)c1ccnc2ccccc12 :: 6.70

Please supply the value of reported pIC50 for the item `N#C[C@@H]1CCCN1C(=O)CNC(=O)c1ccnc2cc(-c3ccc(C(=O)O)cc3)ccc12` 8.40

Please supply the value of reported pIC50 for the item `CC(C)(C)OC(=O)N1CC[N+]([O-])(CCCOc2ccc3nccc(C(=O)NCC(=O)N4CC(F)(F)C[C@H]4C#N)c3c2)CC1` 8.60
